# maps each entry to its TGI
- Tested on: SN12C renal
- experiment description: NCI tumour cell line growth inhibition, 48 h

Solved entries:
O=C1C(Cl)N(c2ccc(Cl)cc2)C1c1c[nH]c2ccccc12 (stereo not drawn) | 36 µM
COc1ccc(C(C)=O)cc1N1C(=O)C2C(C1=O)C1(c3ccccc3)C(=O)C2(c2ccccc2)C(c2ccc(C)cc2)=C1c1ccc(C)cc1 (stereo not drawn) | > 100 µM

Return reported TGI; argument: N#Cc1nc(Nc2cccc3ccccc23)sc1N
> 100 µM

// lookup TGI for O=c1[nH]c(=O)n(C2OC(CO)C(O)C2O)cc1NN=NCc1ccccc1 (stereo not drawn)
> 100 µM

Dear colleague, I am looking for the recorded TGI of the following molecule: CCn1c(-c2nonc2N)nc2c(C#CC(C)(C)O)nc(OC[C@H](N)c3ccccc3)cc21
7.38 µM

Using the record for Cc1cc(C)n(C(=C(C(Cl)=C(Cl)Cl)[N+](=O)[O-])n2nc(C)cc2C)n1 , report its TGI.
15.9 µM

// returns reported TGI for input O=C(Nc1ccc(Cl)cc1F)c1ccccc1O
8.71 µM

# TGI lookup, item Cn1nc(N)c2cc([C@@H]3Nc4ccc5[nH]ncc5c4[C@H]4C5CCC(C5)[C@@H]34)ccc21 (stereo partly drawn)
21.2 µM

Given the molecule CC(O)CCC(=O)c1ccoc1 (stereo not drawn) , what is its reported TGI?
9930 µM

Quick check: TGI of O=C1NC(NNc2ccccc2)=N/C1=C\c1ccccc1O ?
> 100 µM

====

Recorded TGI by entry
- System: T-47D breast
- experiment description: NCI tumour cell line growth inhibition, 48 h
Give just the numeric value; µM need not be written.

Study these solved cases before continuing.
CC(C)(Cl)C(Br)CCC(C)(Cl)C(Br)CBr (centres undefined) | 81.3
CC(C)=CCNc1ncnc2c1ncn2C1OC(CO)C(O)C1O (centres undefined) | 3.92
CN1CCN(CCOc2ccc(-c3cnc4c(-c5ccccc5F)cnn4c3)cc2)CC1 | 3.93

Sample CCC(C)n1ncn(-c2ccc(N3CCN(c4ccc(OCC5COC(Cn6cncn6)(c6ccc(Cl)cc6Cl)O5)cc4)CC3)cc2)c1=O (centres undefined) — what was its TGI?
74.3

Item under review: COc1cc(/C=C2\C[C@H]3[C@@H]4CCc5cc(O)ccc5[C@H]4CC[C@]3(C)C2=O)cc(OC)c1OC . Reported TGI?
38.5

====

- Test system: NCI-H226 lung
- experiment description: NCI tumour cell line growth inhibition, 48 h
Catalogue of TGI readings, one per entry.

Answered cases to consult:
C=COCCCOc1ccccc1 | > 100 µM
CC(C)(C)[Si](C)(C)OCC1OC(n2ccc(N)nc2=O)C(O[Si](C)(C)C(C)(C)C)C1O[Si](C)(C)C(C)(C)C (stereo not given) | 2.86 µM
COc1ccc(-n2cc(-c3cc(OC)c(OC)c(OC)c3)c(C(=O)C(F)(F)F)c2C)cc1 | > 100 µM

Give recorded TGI with NCI-H226 lung for the following molecule: O=c1c2sc(=S)n(-c3ccc(F)cc3)c2ncn1Cc1ccc(F)cc1F
> 100 µM

Please state recorded TGI (tested on NCI-H226 lung) of C=C1C(=O)OC2CCN3CC=C(COC(=O)C(C)(O)C4(CO4)C1C)C23 (stereo not given)
> 100 µM

====

- System: HCC-2998 colon
- experiment description: NCI tumour cell line growth inhibition, 48 h
# reported TGI; entries follow

Reference set, count: 4
CCOc1cc2c(OCc3ccccc3)cc3c4cc(OC)c(OC)cc4c[n+](C)c3c2cc1OC | 21.6 µM
CN(C)/C=N/c1nc2c(ncn2C2OC(CO)C(O)C2O)c(=O)[nH]1 (stereo not given) | > 100 µM
CC(C)(C)CC(C)(C)c1cc2c(O)c(c1)Cc1cc(C(C)(C)CC(C)(C)C)cc(c1O)Cc1cc(C(C)(C)CC(C)(C)C)cc(c1O)Cc1cc(C(C)(C)CC(C)(C)C)cc(c1O)C2 | > 100 µM
CC(O)CCC(=O)c1ccoc1 (stereo not given) | > 10000 µM

Would you kindly share the measured TGI for NS(=O)(=O)c1ccc(N=Nc2nc3[nH]c(=O)[nH]c(=O)c3[nH]2)cc1 ?
> 100 µM

// query TGI value for entry Oc1cn(-c2ccc(Cl)cc2)nc1-c1nnc(-c2ccccc2)o1
5.91 µM

Would you mind telling me what TGI value was observed for CS(=O)(=O)O[C@H]1CN2C[C@@H](O)[C@@H](O)[C@H]2[C@H]1CO ?
> 100 µM

What value of measured TGI is listed for O=C(NCC(=O)N1CCCC1C(=O)OC(=O)C1CCCN1C(=O)CNC(=O)OCc1ccccc1)OCc1ccccc1 (stereo not given) ?
> 100 µM

Look up TGI: CCOC(=O)c1c(-c2ccc(OC)cc2)c(C#N)c(=S)n(C2OC(COC(C)=O)C(OC(C)=O)C(OC(C)=O)C2OC(C)=O)c1-c1ccccc1 (stereo not given)
> 100 µM
